Reported IC50 by item:
Target: CYP3A4 (Homo sapiens (Human), UniProt P08684)
Sequence (P08684 whole entry): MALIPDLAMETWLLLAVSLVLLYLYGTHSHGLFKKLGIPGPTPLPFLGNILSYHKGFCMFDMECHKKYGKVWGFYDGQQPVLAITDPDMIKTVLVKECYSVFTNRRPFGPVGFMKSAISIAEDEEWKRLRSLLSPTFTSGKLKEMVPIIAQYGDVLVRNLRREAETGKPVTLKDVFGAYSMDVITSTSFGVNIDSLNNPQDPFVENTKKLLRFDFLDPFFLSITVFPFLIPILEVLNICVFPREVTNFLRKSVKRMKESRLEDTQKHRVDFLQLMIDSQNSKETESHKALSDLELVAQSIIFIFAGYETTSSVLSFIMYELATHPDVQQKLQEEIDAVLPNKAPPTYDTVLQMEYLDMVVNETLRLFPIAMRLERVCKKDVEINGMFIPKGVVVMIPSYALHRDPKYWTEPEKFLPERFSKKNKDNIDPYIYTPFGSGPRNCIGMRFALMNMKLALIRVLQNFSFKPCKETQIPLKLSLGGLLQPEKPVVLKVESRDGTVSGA
Assay: CYP3A Inhibition Assay (human hepatic microsomes; midazolam 1'-hydroxylase and testosterone 6β-hydroxylase activities)
Settings: read-out: CYP3A4 IC50 (μM) (midazolam); pooled human hepatic microsomal fraction; midazolam 1'-hydroxylase activity
Please reply with the bare figure in µM and do not write the unit itself.

Consider the worked cases shown below.
# chem_smiles, val
records = [
    ("CC(C)c1nc(CN(C)C(=O)NC2(C(=O)N[C@H](CC[C@H](Cc3ccccc3)NC(=O)OCc3cncs3)Cc3ccccc3)CCN(C)CC2)cs1", 0.19),
    ("CC(C)c1nc(CN(C)C(=O)N2CCC[C@H]2C(=O)N[C@H](CC[C@H](Cc2ccccc2)NC(=O)OCc2cncs2)Cc2ccccc2)cs1", 0.13),
    ("CC(C)c1nc(CN(C)C(=O)N2C[C@H](O)C[C@H]2C(=O)N[C@@H](CC[C@@H](Cc2ccccc2)NC(=O)OCc2cncs2)Cc2ccccc2)cs1", 0.12),
]

Prompt line: Which value of IC50 has been reported for CC(C)c1nc(CN(C)C(=O)N2Cc3nc[nH]c3C[C@H]2C(=O)N[C@H](CC[C@H](Cc2ccccc2)NC(=O)OCc2cncs2)Cc2ccccc2)cs1 in the records?
Response line: 0.19

Prompt line: Further, for CC(C)c1nc(CN(C)C(=O)N2C[C@@H](N(C)C)C[C@H]2C(=O)N[C@H](CC[C@H](Cc2ccccc2)NC(=O)OCc2cncs2)Cc2ccccc2)cs1 ?
Response line: 0.15

Prompt line: Further, for CC(C)c1nc(CN(C)C(=O)N2CCC[C@@H]2C(=O)N[C@H](CC[C@H](Cc2ccccc2)NC(=O)OCc2cncs2)Cc2ccccc2)cs1 ?
Response line: 0.11

Prompt line: Further, for CC(C)c1nc(CN(C)C(=O)N2CS(=O)(=O)C[C@H]2C(=O)N[C@H](CC[C@H](Cc2ccccc2)NC(=O)OCc2cncs2)Cc2ccccc2)cs1 ?
Response line: 0.16

Prompt line: Further, for CC(C)c1nc(CN(C)C(=O)N2C[C@@H](O)C[C@H]2C(=O)N[C@H](CC[C@H](Cc2ccccc2)NC(=O)OCc2cncs2)Cc2ccccc2)cs1 ?
Response line: 0.17

Prompt line: Further, for CC(C)c1nc(CN(C)C(=O)N2C[C@H](O)C[C@H]2C(=O)N[C@H](CC[C@H](Cc2ccccc2)NC(=O)OCc2cncs2)Cc2ccccc2)cs1 ?
Response line: 0.16

Prompt line: Further, for CN[C@H]1C[C@@H](C(=O)N[C@H](CC[C@H](Cc2ccccc2)NC(=O)OCc2cncs2)Cc2ccccc2)N(C(=O)N(C)Cc2csc(C(C)C)n2)C1 ?
Response line: 0.17

Prompt line: Further, for CC(C)c1nc(CN(C)C(=O)N2CCN(C)C[C@H]2C(=O)N[C@H](CC[C@H](Cc2ccccc2)NC(=O)OCc2cncs2)Cc2ccccc2)cs1 ?
Response line: 0.14

Prompt line: Further, for CC(C)c1nc(CN(C)C(=O)N2C[C@@H](N)C[C@H]2C(=O)N[C@H](CC[C@H](Cc2ccccc2)NC(=O)OCc2cncs2)Cc2ccccc2)cs1 ?
Response line: 0.19
